Species: Rattus norvegicus
Test: DrugMatrix - Regimen: Daily Repeat
Format: toxicity, organism-based, Sprague-Dawley
Set-up: regimen Daily Repeat, gender Male, age 6-8 weeks
Details: in vivo, po, 0 mg/kg, 120 h, tissue Plasma, route oral GAVAGE, dose level Control, time 5 day, vehicle .5 % CMC
molecules and their reported ALBUMIN
ASSAY_METRIC: ALBUMIN (G/DL)

>>> result("CCc1cccc2c3c([nH]c12)C(CC)(CC(=O)O)OCC3 (centres undefined)")
3.77
>>> result("O=c1cc(-c2ccccc2)oc2c1ccc1ccccc12")
3.64
>>> result("Cc1c(-c2ccccc2)oc2c(C(=O)OCCN3CCCCC3)cccc2c1=O [FLAVOXATE]")
4.32
>>> result("O=C1CCc2cc(OCCCCc3nnnn3C3CCCCC3)ccc2N1")
3.72
>>> result("CCOC(=O)OC(C)OC1=C(C(=O)Nc2ccccn2)N(C)S(=O)(=O)c2ccccc21 (centres undefined)")
4.2
>>> result("NCC(=O)O")
3.82
>>> result("COc1c(C)c2c(c(O)c1C/C=C(\\C)CCC(=O)OCCN1CCOCC1)C(=O)OC2 [MYCOPHENOLATE MOFETIL]")
4.27
>>> result("O=c1[nH]cc(F)c(=O)[nH]1")
4.33
>>> result("CN1C(C(=O)Nc2ccccn2)=C(O)c2ccccc2S1(=O)=O")
3.55
>>> result("COC(=O)c1ccc(O)cc1")
4.27
>>> result("CCc1ccc(C(=O)C(C)CN2CCCCC2)cc1 (centres undefined)")
4.22
>>> result("CN1CCC[C@@H]1CCO[C@](C)(c1ccccc1)c1ccc(Cl)cc1")
4.27
>>> result("CCC[C@@H]1C[C@@H](C(=O)N[C@@H]([C@H]2O[C@H](SC)[C@H](O)[C@@H](O)[C@H]2O)[C@@H](C)O)N(C)C1")
4.22
>>> result("Brc1ccccc1")
4.2
>>> result("C[C@]12CCC(=O)C=C1CC[C@@H]1[C@@H]2C(=O)C[C@@]2(C)[C@H]1CC[C@]2(O)C(=O)CO")
3.77
>>> result("CC(/C=C1\\SC(=S)N(CC(=O)O)C1=O)=C\\c1ccccc1")
4.27
>>> result("CC1(C)[C@H]2CC[C@]1(C)C(=O)C2 [(-)-CAMPHOR]")
4.38
>>> result("CC[C@H]1OC(=O)[C@H](C)[C@@H](O[C@H]2C[C@@](C)(OC)[C@@H](O)[C@H](C)O2)[C@H](C)[C@@H](O[C@@H]2O[C@H](C)C[C@H](N(C)C)[C@H]2O)[C@](C)(O)C[C@@H](C)/C(=N\\OCOCCOC)[C@H](C)[C@@H](O)[C@]1(C)O")
3.77
>>> result("CC(C)[C@H](N)C(=O)OCCOCn1cnc2c(=O)[nH]c(N)nc21")
4.2

====

Species: Rattus norvegicus
Test: DrugMatrix - Regimen: Daily Repeat
Type: toxicity, organism-based, Sprague-Dawley
Parameters: regimen Daily Repeat, gender Male, age 6-8 weeks
Settings: in vivo, po, 0 mg/kg, 72 h, tissue Blood, route oral GAVAGE, dose level Control, time 3 day, vehicle 100 % WATER
compounds and their reported EOSINOPHIL
ASSAY_METRIC: EOSINOPHIL (%)

>>> result("CC(C)(S)[C@@H](N)C(=O)O")
0
>>> result("Fc1ccc([C@@H]2CCNC[C@H]2COc2ccc3c(c2)OCO3)cc1")
0.33
>>> result("COc1cccc(C2(O)CCCCC2CN(C)C)c1 (stereo not given)")
0.33
>>> result("C[C@]12Cc3c[nH]nc3C[C@@H]1CC[C@@H]1[C@@H]2CC[C@@]2(C)[C@H]1CC[C@]2(C)O")
0.33
>>> result("Cc1cc(NS(=O)(=O)c2ccc(N)cc2)no1")
0.83

====

Species on record: Rattus norvegicus
Assay: DrugMatrix - Regimen: Daily Repeat
Type: toxicity, organism-based, Sprague-Dawley
Design: regimen Daily Repeat, gender Male, age 6-8 weeks
Details: in vivo, ip, 0.5 mg/kg, 120 h, tissue Blood, route intraperitoneal, dose level High, time 5 day, vehicle 100 % SALINE
ASSAY_METRIC: ABSOLUTE MONOCYTE (cells/µL)

>>> result("CISPLATIN")
150

====

compounds and their reported TOTAL BILIRUBIN
Species on record: Rattus norvegicus
Experiment: DrugMatrix - Regimen: Daily Repeat
Type: toxicity, organism-based, Sprague-Dawley
Set-up: regimen Daily Repeat, gender Male, age 6-8 weeks
Settings: in vivo, po, 10 mg/kg, 72 h, tissue Plasma, route oral GAVAGE, dose level Low, time 3 day, vehicle .5 % CMC
ASSAY_METRIC: TOTAL BILIRUBIN

>>> result("COc1c(C)c2c(c(O)c1C/C=C(\\C)CCC(=O)OCCN1CCOCC1)C(=O)OC2 [MYCOPHENOLATE MOFETIL]")
"0.1 mg/dL"
>>> result("O=C1CN=C(c2ccccc2)c2cc([N+](=O)[O-])ccc2N1")
"0.2 mg/dL"
>>> result("NS(=O)(=O)c1cc2c(cc1Cl)NCNS2(=O)=O [HYDROCHLOROTHIAZIDE]")
"0.2 mg/dL"
>>> result("CC(=O)O[C@]1(C(C)=O)CC[C@H]2[C@@H]3C=C(Cl)C4=CC(=O)CC[C@]4(C)[C@H]3CC[C@@]21C [CHLORMADINONE ACETATE]")
"0.3 mg/dL"

====

Species on record: Rattus norvegicus
Assay: DrugMatrix - Regimen: Daily Repeat
Assay type: toxicity, organism-based, Sprague-Dawley
Design: regimen Daily Repeat, gender Male, age 6-8 weeks
Conditions: in vivo, po, 0 mg/kg, 72 h, tissue Blood, route oral GAVAGE, dose level Control, time 3 day, […]
compounds and their reported MONOCYTE
ASSAY_METRIC: MONOCYTE

>>> result("CSc1ccc2c(c1)N(CCC1CCCCN1C)c1ccccc1S2 (centres undefined) [THIORIDAZINE]")
"1%"
>>> result("CC(C)(Oc1ccc(CCNC(=O)c2ccc(Cl)cc2)cc1)C(=O)O [BEZAFIBRATE]")
"1.67%"
>>> result("CC(C)n1c(/C=C/C(O)CC(O)CC(=O)O)c(-c2ccc(F)cc2)c2ccccc21 (centres undefined) [FLUVASTATIN]")
"0.83%"
>>> result("CCCCCCCCCc1ccc(O)cc1 [4-NONYLPHENOL]")
"1.5%"
>>> result("COC1=CC(=O)C[C@@H](C)[C@]12Oc1c(Cl)c(OC)cc(OC)c1C2=O [GRISEOFULVIN]")
"0.83%"
>>> result("COCc1c(C(C)C)nc(C(C)C)c(/C=C/[C@@H](O)C[C@@H](O)CC(=O)O)c1-c1ccc(F)cc1 [CERIVASTATIN]")
"1.5%"
>>> result("COc1ccc2c(c1)c(CC(=O)OCC(=O)O)c(C)n2C(=O)c1ccc(Cl)cc1 [ACEMETACIN]")
"2.5%"
>>> result("CN(C)CCCC1(c2ccc(F)cc2)OCc2cc(C#N)ccc21 (centres undefined) [CITALOPRAM]")
"2.5%"
>>> result("Cn1cnc([N+](=O)[O-])c1Sc1ncnc2nc[nH]c12 [AZATHIOPRINE]")
"4.67%"

====

Species on record: Rattus norvegicus
Assay: DrugMatrix - Regimen: Daily Repeat
Format: toxicity, organism-based, Sprague-Dawley
Parameters: regimen Daily Repeat, gender Male, age 6-8 weeks
Settings: in vivo, po, 10 mg/kg, 72 h, tissue Blood, route oral GAVAGE, dose level Low, time 3 day, vehicle .5 % CMC
compounds and their reported ERYTHROCYTE COUNT
ASSAY_METRIC: ERYTHROCYTE COUNT (x10E6/uL)

>>> result("COc1c(C)c2c(c(O)c1C/C=C(\\C)CCC(=O)OCCN1CCOCC1)C(=O)OC2 [MYCOPHENOLATE MOFETIL]")
5.1
>>> result("NS(=O)(=O)c1cc2c(cc1Cl)NCNS2(=O)=O [HYDROCHLOROTHIAZIDE]")
5.79
>>> result("CC(=O)O[C@]1(C(C)=O)CC[C@H]2[C@@H]3C=C(Cl)C4=CC(=O)CC[C@]4(C)[C@H]3CC[C@@]21C [CHLORMADINONE ACETATE]")
5.63
>>> result("O=C1CN=C(c2ccccc2)c2cc([N+](=O)[O-])ccc2N1")
5.13

====

Species: Rattus norvegicus
Assay: DrugMatrix - Regimen: Daily Repeat
Assay type: toxicity, organism-based, Sprague-Dawley
Parameters: regimen Daily Repeat, gender Male, age 6-8 weeks
Conditions: in vivo, po, 0 mg/kg, 72 h, tissue Plasma, route oral GAVAGE, dose level Control, time 3 day, […]
ASSAY_METRIC: LACTATE DEHYDROGENASE

>>> result("COCc1c(C(C)C)nc(C(C)C)c(/C=C/[C@@H](O)C[C@@H](O)CC(=O)O)c1-c1ccc(F)cc1 [CERIVASTATIN]")
"198.5 u/L"
>>> result("Cn1cnc([N+](=O)[O-])c1Sc1ncnc2nc[nH]c12 [AZATHIOPRINE]")
"115 u/L"
>>> result("CN(C)CCCC1(c2ccc(F)cc2)OCc2cc(C#N)ccc21 (stereo not given) [CITALOPRAM]")
"119.5 u/L"
>>> result("Oc1c(Cl)cc(Cl)cc1Sc1cc(Cl)cc(Cl)c1O [BITHIONOL]")
"94.5 u/L"
>>> result("CCCC[C@@H](CC)COC(=O)c1ccccc1C(=O)OC[C@@H](CC)CCCC [BIS(2-ETHYLHEXYL)PHTHALATE]")
"101.83 u/L"
